# measurement-description: Ratio of AUClast in Sprague-Dawley rat hypothalamus to serum at 10 mg/kg, po administered as single dose by LC-MS/MS analysis
# Type: ADME, organism-based
# run-parameters: read-out: Ratio AUC
measurement-kind: Kp
Answer as a number with no unit attached.

Recorded Kp (compound `O=C(CN1CCN(c2ccc([N+](=O)[O-])cc2)CC1)N1CCN(c2ccc([N+](=O)[O-])cc2)CC1` ): 1.1

###

# measurement-description: AUClast in Sprague-Dawley rat serum at 10 mg/kg, po administered as single dose by LC-MS/MS analysis
# Assay type: ADME, organism-based
# Set-up: dose 10 mg/kg, route oral, time 0 - last
measurement-kind: AUC(0-t) (ng·h/mL)
Just the number please, in ng·h/mL, no unit attached.

Per the record, `O=C(CN1CCN(c2ccc([N+](=O)[O-])cc2)CC1)N1CCN(c2ccc([N+](=O)[O-])cc2)CC1` has AUC(0-t) of 24100
